B1: TPR t1 (parent)
chain: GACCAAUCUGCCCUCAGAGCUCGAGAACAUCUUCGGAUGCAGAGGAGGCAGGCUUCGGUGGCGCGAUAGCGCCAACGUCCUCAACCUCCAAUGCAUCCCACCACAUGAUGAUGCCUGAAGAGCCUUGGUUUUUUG

# Variants of: B1
# TEST DETAILS: polymerase ribozyme fitness, log enrichment relative to wild type (log ratio); higher = more active; in vitro selection for triplet polymerase activity
So basically every entry gets a class from its polymerase ribozyme fitness (log ratio), ranges being bottom = under -4, middle = from -4 up to -1, top = -1 and over

INSERT INTO measurements (mutation_list, class) VALUES
  ('C99G U112C U133A', 'bottom'),
  ('U9G G36C C56U C76U C85U A118U', 'middle'),
  ('C12A C40A C70G', 'bottom'),
  ('C72G C101A', 'top'),
  ('A37U C53A G63A C94G G120C U131A', 'middle'),
  ('U7G C79U C80U', 'middle'),
  ('A6U U106A', 'top'),
  ('C73A C86U', 'top'),
  ('A26U U81A', 'bottom'),
  ('C12A A41U G77C A83G C85A U125A', 'bottom'),
  ('C8A A37G A100C', 'top'),
  ('C11G G60A G120A G135A', 'top'),
  ('G77C C94U', 'top'),
  ('C11G C98A', 'middle'),
  ('A37U C89A A95U C123A', 'middle'),
  ('C53U A75G A84U', 'top'),
  ('A5C C34A G42C C88U', 'bottom'),
  ('C4G C13U U33G G39U G44A C82U U112A', 'bottom'),
  ('C20U G44A A74G U87C U92A G93A C124U', 'middle'),
  ('G48A C72G A103U A119G', 'middle'),
  ('C62G U133A', 'middle');
